Biological target: KRAS^G12D I36N (Homo sapiens, UniProt P01116, G12D/I36N)
Construct: His6 (N); made in house
Sequence (P01116 1-169 isoform P01116-2 G12D/I36N): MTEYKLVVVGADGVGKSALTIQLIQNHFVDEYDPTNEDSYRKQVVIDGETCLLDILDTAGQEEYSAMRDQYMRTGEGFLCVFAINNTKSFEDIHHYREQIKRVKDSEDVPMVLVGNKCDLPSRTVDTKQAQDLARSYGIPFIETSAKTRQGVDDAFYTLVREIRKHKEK
Experiment: Microscale thermophoresis on binding-site mutant KRAS^G12D I36N
Settings: MST, 31MEW44, first experiment
ENDPOINT NAME: Kd (nM)
// return numeric value only (unit: nM, not printed)

For KRAS^G12D I36N (Homo sapiens, UniProt P01116, G12D/I36N), provide Kd of NC1(C(=O)NCCCn2cc(-c3ccc(OC(F)(F)F)cc3)c3cc(CN4CCN(Cc5c(Cl)cccc5Cl)CC4)ccc32)CCNCC1 please.
1100

---

Target: KRAS^G12D D38A (Homo sapiens, UniProt P01116, D38A/G12D)
Construct: His6 (N); made in house
Sequence (P01116 1-169 isoform P01116-2 G12D/D38A): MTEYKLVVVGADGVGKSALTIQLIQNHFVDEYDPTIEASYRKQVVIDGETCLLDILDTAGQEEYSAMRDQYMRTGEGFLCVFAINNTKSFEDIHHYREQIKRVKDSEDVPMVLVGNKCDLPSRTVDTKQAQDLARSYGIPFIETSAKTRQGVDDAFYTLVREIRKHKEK
Experiment: Microscale thermophoresis on binding-site mutant KRAS^G12D D38A
Details: MST, 31MEW44, FIG. 14H
ENDPOINT NAME: Kd (µM)
Give the value in µM but do not write µM after it.

Request the reported Kd associated with NC1(C(=O)NCCCn2cc(-c3ccc(OC(F)(F)F)cc3)c3cc(CN4CCN(Cc5c(Cl)cccc5Cl)CC4)ccc32)CCNCC1 [Compound 31MEW44]
33
